# Method summary: Binding affinity to CBR (unknown origin)
# Parameters: species or system Homo sapiens
Measured attribute: Ki (nM)

- Structure smiles: "CCCN(CCC)C(=O)Cc1c(-c2ccc(Cl)cc2)nc2ccc(Cl)cn12"
  Recorded measurement: 1

###

# Method summary: Displacement of [3H]flunitrazepam from CBR receptor in rat brain cortex membrane incubated for 20 mins by liquid scintillation spectrometer method
# Type: cell membranes, Cerebral cortex
# Test parameters: read-out: IC50
# key: entry, value: IC50

- Molecule: "CCCCCCN(CCCCCC)C(=O)/C=C1\\c2ncccc2C(=O)N1c1ccc(Cl)cc1"
  IC50: "> 1 µM"
- Molecule: "CCCN(CCC)C(=O)/C=C1\\c2nc3ccccc3cc2C(=O)N1c1ccc(Cl)cc1"
  IC50: "> 1 µM"
- Molecule: "CCCCCCN(CCCCCC)C(=O)/C=C1\\c2nc3ccccc3cc2C(=O)N1c1ccc(Cl)cc1"
  IC50: "> 1 µM"
- Molecule: "CCCN(CCC)C(=O)Cc1c(-c2ccc(Cl)cc2)nc2ccc(Cl)cn12"
  IC50: "0.001 µM"
- Molecule: "CCCCCCN(CCCCCC)C(=O)CC1c2nc3ccccc3cc2C(=O)N1c1ccc(Cl)cc1 (stereo unspecified)"
  IC50: "> 1 µM"
- Molecule: "CCCN(CCC)C(=O)CC1c2ncccc2C(=O)N1c1ccc(Cl)cc1 (stereo unspecified)"
  IC50: "0.86 µM"
- Molecule: "CCCN(CCC)C(=O)Cc1c(-c2ccc(Cl)cc2)[nH]c2ccc(Cl)cc12"
  IC50: "> 1 µM"
- Molecule: "CCCCCCN(CCCCCC)C(=O)CC1c2ncccc2C(=O)N1c1ccc(Cl)cc1 (stereo unspecified)"
  IC50: "> 1 µM"
- Molecule: "CCCN(CCC)C(=O)/C=C1\\c2ncccc2C(=O)N1c1ccc(Cl)cc1"
  IC50: "> 1 µM"
- Molecule: "CCCN(CCC)C(=O)CC1c2nc3ccccc3cc2C(=O)N1c1ccccc1 (stereo unspecified)"
  IC50: "> 1 µM"
- Molecule: "O=C1c2cccnc2CN1c1ccc(Cl)cc1"
  IC50: "> 1 µM"
